Source listed as ChEMBL document CHEMBL3994649.

- measurementTarget: Lactoylglutathione lyase (Homo sapiens, UniProt Q04760)
- Sequence (Q04760 whole entry): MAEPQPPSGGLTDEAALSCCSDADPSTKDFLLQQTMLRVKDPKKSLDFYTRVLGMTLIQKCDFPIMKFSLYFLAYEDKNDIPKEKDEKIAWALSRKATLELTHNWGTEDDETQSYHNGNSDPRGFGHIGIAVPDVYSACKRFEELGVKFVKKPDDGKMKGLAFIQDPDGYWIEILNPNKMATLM
- assayExplanation: Inhibition of human N-terminal His6-tagged GLO1 expressed in baculovirus infected sf21 cells assessed as reduction in S-D-lactoylglutathione formation measured for 5 mins in presence of glutathione by spectrophotometric method
valueType: pIC50
Remember, pIC50 is on a log scale: it is -log10 of the molar concentration.

Exercise: Read the entry Oc1cc(O)cc(/C=C/c2ccc(O)c(O)c2)c1 [PICEATANNOL] and write its reported pIC50.
Key: 6.12
